Cited source for all entries: patent US5240961A

# Assay summary: Serum carnitine after oral L-carnitine, double-blind study in patients over 60 (Example 5)
# Format: in vivo, human
# Condition details: human, serum, po, 2 g/day, treatment group average, four weeks; read-out: average total carnitine
Experimental readout: concentration at 672 h (µM)
Numeric answer only, unit µM assumed.

Problem: Reported concentration at 672 h, compound C[N+](C)(C)C[C@H](O)CC(=O)[O-] : ____
Result: 78.4

* * *

# Assay summary: Serum carnitine after oral L-carnitine in healthy adults over 60 (Example 4)
# Type: in vivo, human
# Condition details: human, serum, po, 2 g/day, individual subjects, 2 g/day oral, three months; read-out: Carnitine, Total, posttreatment
Experimental readout: concentration at 2190 h (µM)
Numeric answer only, unit µM assumed.

Problem: Reported concentration at 2190 h, molecule C[N+](C)(C)C[C@H](O)CC(=O)[O-] : ____
Result: 102

* * *

# Assay summary: Serum carnitine after oral L-carnitine in healthy adults over 60 (Example 4)
# Assay type: in vivo, human
# Condition details: human, serum, po, 2 g/day, individual subjects, 2 g/day oral, three months; read-out: Carnitine, Free, posttreatment
# Description: The present invention is further explained by the following examples which should not be construed by way of limiting the scope of the present invention. In the following examples, serum carnitine levels were determined by the method of R. Parvin et al., Anal. Biochem., vol. 79 (1979) pp. 190-201. Serum IGF-1 concentrations were measured by immunoradiometric assay, for example, by IRMA Kit available from Diagnostic Systems Laboratories, Inc., Webster, Texas. […]
Experimental readout: concentration at 2190 h (µM)
Numeric answer only, unit µM assumed.

Problem: Reported concentration at 2190 h, molecule C[N+](C)(C)C[C@H](O)CC(=O)[O-] : ____
Result: 77.2

* * *

# Assay summary: Serum carnitine levels in young mice fed L-carnitine
# Assay type: in vivo, mouse (BALB/c)
# Condition details: mouse, po, 50 mg/kg/day, 50 mg/kg/day oral, read-out: Serum Carnitine, Total
Experimental readout: concentration at 2190 h (µM)
Numeric answer only, unit µM assumed.

Problem: Reported concentration at 2190 h, compound C[N+](C)(C)C[C@H](O)CC(=O)[O-] : ____
Result: 84.2

* * *

# Assay summary: Serum carnitine at 12 weeks in adult mice fed L-carnitine, acetyl carnitine or γ-butyrobetaine
# Parameters: species or system mouse (BALB/c male)
# Condition details: mouse, in vivo, po, 50 mg/kg/day, 12 wks; read-out: Serum carnitine, Free
Experimental readout: concentration at 2016 h (µM)
Numeric answer only, unit µM assumed.

Problem: Reported concentration at 2016 h, compound CC(=O)O[C@H](CC(=O)[O-])C[N+](C)(C)C [acetyl L-carnitine, acetylcarnitine, reference compound] : ____
Result: 45.6

* * *

# Assay summary: Serum carnitine levels in aged mice fed L-carnitine
# Assay type: in vivo, mouse (BALB/c)
# Condition details: mouse, serum, po, 50 mg/kg/day, 50 mg/kg/day oral, six weeks, read-out: Serum Carnitine, Free
# Experimental: The present invention is further explained by the following examples which should not be construed by way of limiting the scope of the present invention. In the following examples, serum carnitine levels were determined by the method of R. Parvin et al., Anal. Biochem., vol. 79 (1979) pp. 190-201. Serum IGF-1 concentrations were measured by immunoradiometric assay, for example, by IRMA Kit available from Diagnostic Systems Laboratories, Inc., Webster, Texas. […]
Experimental readout: concentration at 1008 h (µM)
Numeric answer only, unit µM assumed.

Problem: Reported concentration at 1008 h, compound C[N+](C)(C)C[C@H](O)CC(=O)[O-] : ____
Result: 57
